Would you mind telling me the reported pKd of each entry?
# measurement target: human PTEFb (CDK9/Cyclin T1) (Homo sapiens, UniProt P50750)
# Sequence (P50750 whole entry): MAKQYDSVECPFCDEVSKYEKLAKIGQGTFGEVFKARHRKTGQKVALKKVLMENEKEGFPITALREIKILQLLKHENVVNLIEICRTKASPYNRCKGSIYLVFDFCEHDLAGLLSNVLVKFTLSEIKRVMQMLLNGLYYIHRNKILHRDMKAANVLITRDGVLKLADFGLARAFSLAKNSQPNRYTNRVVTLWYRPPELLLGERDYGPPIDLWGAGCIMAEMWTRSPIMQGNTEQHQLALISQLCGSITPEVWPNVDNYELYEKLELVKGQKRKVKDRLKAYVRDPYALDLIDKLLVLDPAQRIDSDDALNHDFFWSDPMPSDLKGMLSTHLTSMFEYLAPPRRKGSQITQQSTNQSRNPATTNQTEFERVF
# Sequence (O60563 whole entry partner): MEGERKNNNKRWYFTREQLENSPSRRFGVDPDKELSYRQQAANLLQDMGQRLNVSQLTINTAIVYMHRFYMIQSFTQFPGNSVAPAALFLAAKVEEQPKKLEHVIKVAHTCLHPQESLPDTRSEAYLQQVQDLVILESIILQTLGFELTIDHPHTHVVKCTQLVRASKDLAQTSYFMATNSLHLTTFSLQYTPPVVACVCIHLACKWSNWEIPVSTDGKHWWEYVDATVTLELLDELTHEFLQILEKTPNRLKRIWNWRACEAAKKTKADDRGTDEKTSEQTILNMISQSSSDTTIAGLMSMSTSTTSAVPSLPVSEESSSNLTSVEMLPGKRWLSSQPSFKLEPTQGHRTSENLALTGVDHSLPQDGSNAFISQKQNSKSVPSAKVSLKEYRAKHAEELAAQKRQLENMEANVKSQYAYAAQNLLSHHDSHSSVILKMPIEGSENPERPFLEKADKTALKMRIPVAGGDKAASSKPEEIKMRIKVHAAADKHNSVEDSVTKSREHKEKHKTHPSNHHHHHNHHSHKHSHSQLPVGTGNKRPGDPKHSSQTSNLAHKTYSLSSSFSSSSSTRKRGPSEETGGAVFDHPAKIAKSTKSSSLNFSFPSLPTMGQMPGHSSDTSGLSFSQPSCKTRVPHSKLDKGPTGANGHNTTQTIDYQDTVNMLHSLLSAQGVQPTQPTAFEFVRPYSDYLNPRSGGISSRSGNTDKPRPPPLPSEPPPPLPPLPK
# measurement description: Surface Plasmon Resonance PTEFb
# stated conditions: SPR, 37° C.; * = arithmetic mean of more than one value; read-out: Equilibrium dissociation constant KD
pKd field: float, defined as -log10 of concentration (mol/L).

IN: Endpoint output: pKd of CC1CCCNc2cc(ccc2F)-c2nc(ncc2F)Nc2cc(CS(C)(=O)=O)cc(c2)O1 (racemic) . Value?
OUT: 9.55

IN: Now try CS(=N)(=O)Cc1cc2cc(c1)OCCCNc1cc(ccc1F)-c1nc(ncc1F)N2 (racemic) .
OUT: 9.42

IN: Now try CS(=N)(=O)Cc1cc2cc(c1)OCCCCNc1cc(ccc1F)-c1nc(ncc1F)N2 (single isomer, unassigned) [Example 10] .
OUT: 9.82

IN: Now try CS(=N)(=O)Cc1cc2cc(c1)OCCCCNc1cc(ccc1F)-c1nc(ncc1F)N2 (racemic) [Example 2] .
OUT: 10.13
